Source listed as patent US20220112288A1.

Entries and their kon values follow.
molecular target: T1, Recombinant human CD4 (R&D Systems, Cat. 10327-CD) (human, UniProt P01730 26-390, limits assumed); assay: BLI Octet, non-clonal supernatant on AMC sensor, 100 nM human CD4, 1:1 local fit;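 note: Single-concentration kinetics per supernatant, with the 1:1 model fitted across both the association and dissociation phases of the sensorgram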
T1 construct: Bought reagent; also called huCD4
Your answer is read as M⁻¹ s⁻¹, so omit the unit and give the number.

Solved cases (2 shown):
75110_01D24A (antibody, V domains shown, Tested as non-clonal AlivaMab Mouse Kappa hybridoma supernatant, captured by anti-mouse IgG Fc sensor) VH: QVQLQQWGAGLLKPSETLSLTCAVYGGSFSGYYWSWIRQPPGKGLEWIGEINHSGSTNYNPSLKSRVTISVDTSENQFSLKLNSVTAADTAVYYCARLVNWFDPWGQGTLVTVSS VL: EIQMTQSPSSVSASVGDRVTITCRASQDISNWLAWYQQKPGKAPNLLIFAASSLQTGVPSRFSGSGSGTDFTLTISSLQPDDFATYYCQQANSFPYSFGQGTNLGIK = 110000
75110_12C19A (antibody, V domains shown, Tested as non-clonal AlivaMab Mouse Kappa hybridoma supernatant, captured by anti-mouse IgG Fc sensor) VH: EVQLVESGGGLVQPGGSLRLSCAASGFTFSSYWMSWVRQAPGKGLEWVANIKEDGSDKYYVDSVKGRFTISRDNAKNSLYLQMNSLRAEDTAVHYCVREGGQWLALDYWGQGTLVTVSS VL: DIQMTQSPSSVSGSVGDRVTITCRASQGISSWLAWYQQKPGKAPKLLIYGASSLQSGVPSRFSGSGSGTDFTLTISSLQPEDFVTYYCQQANSFPWTFGQGTKVEIK = 154000

From here, focus on the item given below.
Consider the binder 75110_04B08A (antibody, V domains shown, Tested as non-clonal AlivaMab Mouse Kappa hybridoma supernatant, captured by anti-mouse IgG Fc sensor) VH: QVQLVESGGGVVQPGRSLRLSCTASGFNFINYGIHWVRQAPGKGLEWVTIIWYDGSKKYYADSVKGRFAISRDNSKNTLYLQMNSLRAEDTAVYYCAREDDWNDGLAYWGQGTLVTVSS VL: AIQMTQSPSSLSASVGDRVTITCRASQDIRNDLGWYQQKPGKAPNLLIYAASNLQSGVPSRFSGSGSGTDFTLTISSLQPEDFATYYCLQDSNYPRTFGQGTKVEIK and give its recorded kon. 230000
